Value source: patent US11447493B2

The entries below come with measured IC50 values attached.
- targetOrTestSystem: CDK7/CycH/MAT1 (Homo sapiens (Human), UniProt P50613)
- Sequence (P50613 whole entry): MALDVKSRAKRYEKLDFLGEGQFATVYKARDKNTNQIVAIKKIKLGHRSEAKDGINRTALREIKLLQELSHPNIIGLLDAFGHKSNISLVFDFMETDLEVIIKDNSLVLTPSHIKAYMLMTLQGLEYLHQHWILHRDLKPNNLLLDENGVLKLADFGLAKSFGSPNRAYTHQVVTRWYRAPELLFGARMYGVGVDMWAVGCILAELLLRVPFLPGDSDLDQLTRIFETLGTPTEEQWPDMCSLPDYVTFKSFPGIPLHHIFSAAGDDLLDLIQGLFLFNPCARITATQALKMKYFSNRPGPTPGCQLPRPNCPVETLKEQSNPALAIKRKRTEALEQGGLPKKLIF
- Sequence (P51946 whole entry partner): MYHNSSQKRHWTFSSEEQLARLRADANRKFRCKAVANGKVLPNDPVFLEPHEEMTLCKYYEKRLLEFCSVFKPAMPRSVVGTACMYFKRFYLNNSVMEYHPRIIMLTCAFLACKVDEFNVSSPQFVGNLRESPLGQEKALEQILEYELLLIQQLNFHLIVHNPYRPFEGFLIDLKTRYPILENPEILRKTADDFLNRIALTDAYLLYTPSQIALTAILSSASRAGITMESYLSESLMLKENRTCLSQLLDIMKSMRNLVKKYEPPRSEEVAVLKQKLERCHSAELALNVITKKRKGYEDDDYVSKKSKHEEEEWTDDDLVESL
- Sequence (P51948 whole entry partner): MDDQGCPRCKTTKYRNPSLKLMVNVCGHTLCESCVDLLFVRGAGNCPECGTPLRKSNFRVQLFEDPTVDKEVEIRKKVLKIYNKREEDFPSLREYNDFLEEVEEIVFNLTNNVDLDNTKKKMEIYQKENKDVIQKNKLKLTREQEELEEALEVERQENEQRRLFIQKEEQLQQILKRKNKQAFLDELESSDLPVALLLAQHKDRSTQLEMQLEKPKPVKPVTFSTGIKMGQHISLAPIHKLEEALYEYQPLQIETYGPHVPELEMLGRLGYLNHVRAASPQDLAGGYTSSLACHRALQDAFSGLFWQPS
- experimentalProtocol: Radiometric protein kinase assay (33PanQinase), Assay Condition A (thiol containing)
- settings: thiol containing (1.2 mM DTT), ATP 3.0 μM
- Protocol: The IC50 profile of test compounds was determined using three protein kinases. The compounds were provided as pre-weighed powders in vials. The compounds were dissolved to 1×10^−02M by adding DMSO. 100 μl of each of the resulting stock solutions were transferred into column 2 of four 96 well “master plates”. […] The reaction cocktails were incubated at 30° C. for 60 minutes. […] Incorporation of ^33Pi was determined with a microplate scintillation counter (Microbeta, Wallac). […]
valueType: IC50

1) C=CC(=O)Nc1ccc(C(=O)N2CC[C@@H](Nc3ncc4ccc(C(N)=O)cc4n3)C2)cc1 [Example 39]: 100 to 1000 nM
2) C=CC(=O)Nc1ccc(C(=O)N2CC[C@@H](Nc3ncc4ccc(S(C)(=O)=O)cc4n3)C2)cc1C [Example 93]: 1000 to 10000 nM
3) COc1cc(C(=O)N2CC[C@@H](Nc3ncc4ccccc4n3)C2)ccc1NC(=O)/C=C/CN(C)C [Example 81]: 100 to 1000 nM
4) C=CC(=O)Nc1ccc(C(=O)N2CC[C@@H](Nc3ncc4cc(C)ccc4n3)C2)cc1 [Example 30]: 1000 to 10000 nM
5) C=CC(=O)Nc1ccc(C(=O)N2CC[C@@H](Nc3ncc4c(F)cccc4n3)C2)cc1 [Example 91]: 1000 to 10000 nM
6) C=CS(=O)(=O)Nc1ccc(C(=O)N2CC[C@@H](Nc3ncc4ccccc4n3)C2)cc1 [Example 95]: 100 to 1000 nM
7) C=CC(=O)Nc1ccc(C(=O)N2CC[C@@H](Nc3ncc4ccncc4n3)C2)cc1 [Example 31]: 1000 to 10000 nM
8) C=CC(=O)Nc1ccc(C(=O)N2CCC[C@@H](Nc3ncc4ccc(S(C)(=O)=O)cc4n3)C2)cc1 [Example 11]: 30000 to 100000 nM
